Give selectivity ratio for every item shown.
experiment: Selectivity ratio of IC50 for cytotoxicity against human MRC5 cells assessed as inhibition of cell growth to MIC for antibacterial activity against methicillin-resistant Staphylococcus aureus NMI 1576 K assessed as inhibition of microbial growth by broth-microdilution method; type: toxicity, cell-based
I'd appreciate a reply containing only the number, no unit.

Incoming: For C[Si]1(C)OB(O)c2ccc(SC(=O)c3ccc(C(F)(F)F)cc3)c(F)c21 , what is its reported selectivity ratio?
Outgoing: 4.5

Incoming: For C[Si]1(C)OB(O)c2cc(F)c(SCCC#N)c(F)c21 , what is its reported selectivity ratio?
Outgoing: 11.2

Incoming: For C[Si]1(C)OB(O)c2ccc(SCC(=O)c3ccccc3)c(F)c21 , what is its reported selectivity ratio?
Outgoing: 40.4

Incoming: For C[Si]1(C)OB(O)c2cc(F)c(SCCS(=O)(=O)c3ccccc3)c(F)c21 , what is its reported selectivity ratio?
Outgoing: 19.5

Incoming: For C[Si]1(C)OB(O)c2cc(F)c(SC3CC(=O)NC3=O)c(F)c21 (configuration not stated) , what is its reported selectivity ratio?
Outgoing: 26.8

====

assay: Selectivity ratio of IC50 for cytotoxicity against human MRC5 cells assessed as inhibition of cell growth to MIC for antibacterial activity against methicillin-resistant Staphylococcus aureus NMI 2541 K assessed as inhibition of microbial growth by broth-microdilution method; format: toxicity, cell-based
Give selectivity ratio for every item shown.
I'd appreciate a reply containing only the number, no unit.

Incoming: For C[Si]1(C)OB(O)c2cc(F)c(SCCC#N)c(F)c21 , what is its reported selectivity ratio?
Outgoing: 11.2

Incoming: For C[Si]1(C)OB(O)c2cc(F)c(SCCS(=O)(=O)c3ccccc3)c(F)c21 , what is its reported selectivity ratio?
Outgoing: 19.5

Incoming: For C[Si]1(C)OB(O)c2ccc(SC(=O)c3ccc(C(F)(F)F)cc3)c(F)c21 , what is its reported selectivity ratio?
Outgoing: 8.9

Incoming: For C[Si]1(C)OB(O)c2cc(F)c(SC3CC(=O)NC3=O)c(F)c21 (configuration not stated) , what is its reported selectivity ratio?
Outgoing: 13.4

Incoming: For C[Si]1(C)OB(O)c2ccc(SCC(=O)c3ccccc3)c(F)c21 , what is its reported selectivity ratio?
Outgoing: 80.8

====

tested on: Staphylococcus aureus; assay: Antibacterial activity against methicillin-resistant Staphylococcus aureus ATCC 43300 assessed as diameter of inhibition zone by CLSI based disc-diffusion method; assay type: functional; also: test concentration or dose not given here
property.label: diameter of the inhibition zone (DIZ) (mm)
Give just the number in mm; leave the unit off.

Incoming: For C[Si]1(C)OB(O)c2ccc(SC3CC(=O)NC3=O)c(F)c21 (stereo not given) , what is its reported diameter of the inhibition zone (DIZ)?
Outgoing: 22

Incoming: For Cc1cc(NC(=O)CCSc2c(F)cc3c(c2F)[Si](C)(C)OB3O)no1 , what is its reported diameter of the inhibition zone (DIZ)?
Outgoing: 14

Incoming: For C[Si]1(C)OB(O)c2cc(F)c(SCCS(=O)(=O)c3ccccc3)c(F)c21 , what is its reported diameter of the inhibition zone (DIZ)?
Outgoing: 28

Incoming: For C[Si]1(C)OB(O)c2ccc(SC3CC(=O)N(c4ccc(F)cc4)C3=O)c(F)c21 (stereo not given) , what is its reported diameter of the inhibition zone (DIZ)?
Outgoing: 21

Incoming: For C[Si]1(C)OB(O)c2cc(F)c(SCCC(=O)Nc3cnccn3)c(F)c21 , what is its reported diameter of the inhibition zone (DIZ)?
Outgoing: 25

Incoming: For C[Si]1(C)OB(O)c2cc(F)c(SC3CC(=O)N(c4ccc(F)cc4)C3=O)c(F)c21 (stereo not given) , what is its reported diameter of the inhibition zone (DIZ)?
Outgoing: 24

Incoming: For C[Si]1(C)OB(O)c2cc(F)c(SC3CC(=O)NC3=O)c(F)c21 (stereo not given) , what is its reported diameter of the inhibition zone (DIZ)?
Outgoing: 23

Incoming: For COC(=O)CCSc1ccc2c(c1F)[Si](C)(C)OB2O , what is its reported diameter of the inhibition zone (DIZ)?
Outgoing: 24

Incoming: For CCOP(=O)(OCC)Sc1c(F)cc2c(c1F)[Si](C)(C)OB2O , what is its reported diameter of the inhibition zone (DIZ)?
Outgoing: 27

Incoming: For C[Si]1(C)OB(O)c2cc(F)c(SCCC(=O)Nc3ncccn3)c(F)c21 , what is its reported diameter of the inhibition zone (DIZ)?
Outgoing: 12

Incoming: For C[Si]1(C)OB(O)c2cc(F)c(SCCC#N)c(F)c21 , what is its reported diameter of the inhibition zone (DIZ)?
Outgoing: 19

Incoming: For C[Si]1(C)OB(O)c2ccc(SCCC(=O)OCCCCCC[n+]3ccccc3)c(F)c21.O=S(=O)([O-])C(F)(F)F , what is its reported diameter of the inhibition zone (DIZ)?
Outgoing: 18

Incoming: For C[Si]1(C)OB(O)c2cc(F)c(SCCC(=O)OCCCCCC[n+]3ccccc3)c(F)c21.O=S(=O)([O-])C(F)(F)F , what is its reported diameter of the inhibition zone (DIZ)?
Outgoing: 17

Incoming: For C[Si]1(C)OB(O)c2cc(F)c(S(=O)(=O)Nc3ccc(F)cc3)c(F)c21 , what is its reported diameter of the inhibition zone (DIZ)?
Outgoing: 16

Incoming: For CC(=O)CCSc1c(F)cc2c(c1F)[Si](C)(C)OB2O , what is its reported diameter of the inhibition zone (DIZ)?
Outgoing: 19
